molecular target: α4β2δ GABAAR (human α4, rat β2, rat δ with N-terminal FLAG) (Rattus norvegicus (beta2, delta); Homo sapiens (alpha4), UniProt P18506+P48169+P63138, P18506:T285Y); construct: gene GABRA4; free full subunits transiently transfected (cDNA α:β:δ 1:1:2) in mouse Neuro-2a cells; experiment: whole-cell patch clamp in transfected N2a cells, agonist concentration response, Hill fit; type: cell-based
MEASURED_PROPERTY: EC50 (µM)
Number only, in µM; omit the unit.

Problem: Which EC50 reading was recorded for the molecule `Oc1noc2c1CCNC2` ?
Solution: 16.7

###

target: α4β2δ GABAAR (human α4, rat β2, rat δ with N-terminal FLAG) (Rattus norvegicus (beta2, delta); Homo sapiens (alpha4), UniProt P18506+P48169+P63138); construct: free full subunits transiently transfected (cDNA α:β:δ 1:1:2) in mouse Neuro-2a cells; assay: whole-cell patch clamp in transfected N2a cells, agonist concentration response, Hill fit
Sequence (P63138 26-474): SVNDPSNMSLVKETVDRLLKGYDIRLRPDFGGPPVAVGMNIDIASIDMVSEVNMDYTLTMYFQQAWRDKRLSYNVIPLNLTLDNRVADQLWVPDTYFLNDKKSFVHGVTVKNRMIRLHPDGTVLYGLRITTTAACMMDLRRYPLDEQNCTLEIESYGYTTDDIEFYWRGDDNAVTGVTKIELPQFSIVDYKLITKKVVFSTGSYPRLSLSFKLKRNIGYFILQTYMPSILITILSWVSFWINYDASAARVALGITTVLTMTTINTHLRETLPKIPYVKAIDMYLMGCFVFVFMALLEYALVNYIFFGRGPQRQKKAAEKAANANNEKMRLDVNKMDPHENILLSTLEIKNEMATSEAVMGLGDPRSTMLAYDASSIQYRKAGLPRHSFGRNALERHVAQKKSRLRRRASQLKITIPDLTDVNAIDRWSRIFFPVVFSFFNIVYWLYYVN
Sequence (P48169 36-554): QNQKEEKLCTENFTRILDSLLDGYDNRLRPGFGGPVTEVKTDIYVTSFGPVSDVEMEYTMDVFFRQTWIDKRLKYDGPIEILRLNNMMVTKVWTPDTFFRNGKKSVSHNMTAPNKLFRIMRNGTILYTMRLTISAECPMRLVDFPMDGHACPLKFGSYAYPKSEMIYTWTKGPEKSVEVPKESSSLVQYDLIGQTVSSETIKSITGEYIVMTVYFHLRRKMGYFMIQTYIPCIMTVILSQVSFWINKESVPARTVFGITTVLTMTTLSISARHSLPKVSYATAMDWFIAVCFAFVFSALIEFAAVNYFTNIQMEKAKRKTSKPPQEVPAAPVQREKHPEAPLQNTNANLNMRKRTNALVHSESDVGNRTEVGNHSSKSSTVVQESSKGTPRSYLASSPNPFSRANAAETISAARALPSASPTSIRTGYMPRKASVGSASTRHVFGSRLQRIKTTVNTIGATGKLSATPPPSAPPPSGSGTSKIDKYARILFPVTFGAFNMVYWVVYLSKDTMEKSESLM
Sequence (P18506 25-449): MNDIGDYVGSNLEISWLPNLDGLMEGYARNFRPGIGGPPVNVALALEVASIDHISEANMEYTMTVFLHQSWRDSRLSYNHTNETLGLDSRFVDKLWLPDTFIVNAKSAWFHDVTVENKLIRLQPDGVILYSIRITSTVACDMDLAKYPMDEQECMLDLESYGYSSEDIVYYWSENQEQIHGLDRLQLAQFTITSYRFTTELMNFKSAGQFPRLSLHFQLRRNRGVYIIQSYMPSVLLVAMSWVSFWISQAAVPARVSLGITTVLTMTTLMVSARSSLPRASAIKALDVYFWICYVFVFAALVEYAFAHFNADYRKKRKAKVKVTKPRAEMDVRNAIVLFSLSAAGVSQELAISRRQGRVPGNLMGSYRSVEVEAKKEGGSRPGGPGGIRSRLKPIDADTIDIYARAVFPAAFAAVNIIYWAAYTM
MEASURED_PROPERTY: EC50

Problem: Which EC50 reading was recorded for the compound Oc1noc2c1CCNC2 [THIP] ?
Solution: 38.7 µM

The values you see were collected from paper PMC8636460.
